system: U2OS; assay: Incucyte cell viability with U2OS; assay type: toxicity, cell-based; details: human, 12 h, 10 µM, compound concentration 10 uM, replicate number 1, timepoint 12 hours; also: filed as whole numbers so only -1 and 0 and 1 occur
Readout: Growth Rate
Answer with a bare number; do not write a unit.

**Query** Quick check: Growth Rate on U2OS, item "C[C@]12CC[C@@H]3c4ccc(O)cc4CC[C@H]3[C@@H]1CC[C@@H]2O" ?
**Result** 0

**Query** Reported Growth Rate for U2OS, given "CC(C)OC(=O)N1CCC(Oc2ncnc3c2cnn3-c2ccc(S(C)(=O)=O)cc2F)CC1" ?
**Result** 1

**Query** Find the measured Growth Rate: item "CCc1ccc(OCc2ccccc2C(=O)Nc2ccc3nc(C)cc(N)c3c2)cc1.Cl" , target or system U2OS.
**Result** 0

**Query** Provide value of Growth Rate for this record tested with U2OS: "COc1cc(Nc2nccc(-c3cnn4nc(OC)ccc34)n2)cc(C(F)(F)F)c1"
**Result** 0

**Query** For the record "Cc1csc(NC(=O)c2cc(F)cc(Oc3cncnc3)c2)n1" , what value of Growth Rate is listed for U2OS?
**Result** 0
